Assayed system: THR alpha (Homo sapiens, UniProt P10827)
Construct: expressed in transfected cells; host or cells: HEK293T (ATCC CRL-3216)
Sequence (P10827 1-410 isoform P10827-2): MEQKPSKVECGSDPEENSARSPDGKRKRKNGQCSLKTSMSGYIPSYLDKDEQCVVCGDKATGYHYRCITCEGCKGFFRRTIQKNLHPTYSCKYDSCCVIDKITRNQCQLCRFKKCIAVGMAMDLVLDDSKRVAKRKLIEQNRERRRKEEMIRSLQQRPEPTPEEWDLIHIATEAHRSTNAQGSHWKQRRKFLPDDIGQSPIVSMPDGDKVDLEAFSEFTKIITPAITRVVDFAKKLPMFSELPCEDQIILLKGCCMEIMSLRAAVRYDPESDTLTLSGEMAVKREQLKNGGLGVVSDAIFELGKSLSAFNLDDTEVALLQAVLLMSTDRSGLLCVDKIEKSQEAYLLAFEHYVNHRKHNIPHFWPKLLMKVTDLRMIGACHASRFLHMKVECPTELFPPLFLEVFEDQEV
Sequence (P19793 whole entry partner): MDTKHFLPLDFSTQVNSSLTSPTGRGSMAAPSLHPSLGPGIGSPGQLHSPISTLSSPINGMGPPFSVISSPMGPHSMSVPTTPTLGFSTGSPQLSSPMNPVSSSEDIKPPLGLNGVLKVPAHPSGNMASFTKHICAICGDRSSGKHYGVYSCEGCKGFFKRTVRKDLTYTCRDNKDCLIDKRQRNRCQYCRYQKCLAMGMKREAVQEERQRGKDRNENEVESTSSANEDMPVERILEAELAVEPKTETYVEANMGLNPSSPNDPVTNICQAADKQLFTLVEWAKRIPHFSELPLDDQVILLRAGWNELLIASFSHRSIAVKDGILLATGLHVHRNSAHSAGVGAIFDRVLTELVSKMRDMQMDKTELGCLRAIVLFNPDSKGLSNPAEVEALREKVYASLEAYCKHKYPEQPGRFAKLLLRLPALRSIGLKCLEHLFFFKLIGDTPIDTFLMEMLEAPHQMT
Method: HEK293T THR alpha/RXR luciferase reporter assay (Assay 2)
Assay type: cell-based
Reported conditions: HEK-293T, Table 5; Assay 2; THRα; read-out: Activity category Assay 2 THRα (Emax)
Provide the reported Emax of each item.

// worked examples, Emax included
Nc1nn(-c2cc(Cl)c(Oc3cc(-c4ccc5ccccc5c4)c(=O)[nH]n3)c(Cl)c2)c(=O)[nH]c1=O :: < 50%
Nc1nn(-c2cc(Cl)c(Oc3cc(C(O)C4CCCC4)c(=O)[nH]n3)c(Cl)c2)c(=O)[nH]c1=O (stereo not drawn) :: > 75%
Cc1cc(-n2nc(N)c(=O)[nH]c2=O)cc(Cl)c1Oc1cc(C(C)C)c(=O)[nH]n1 :: 50 to 75%
N#Cc1nn(-c2cc(Cl)c(Oc3ccc4[nH]ccc4c3)c(Cl)c2)c(=O)[nH]c1=O :: > 75%
Nc1nn(-c2cc(Cl)c(Oc3cc(C4(F)CCCC4)c(=O)[nH]n3)c(Cl)c2)c(=O)[nH]c1=O :: 50 to 75%
Cc1cc2cc(Oc3c(Cl)cc(-n4nc(C#N)c(=O)[nH]c4=O)cc3Cl)ccc2[nH]c1=O :: < 50%

Items follow; give Emax for each.
1. CC(C)c1n[nH]c2nnc(Oc3c(Cl)cc(-n4nc(N)c(=O)[nH]c4=O)cc3Cl)cc12
2. CCc1cccc(-c2cc(Oc3c(Cl)cc(-n4nc(N)c(=O)[nH]c4=O)cc3Cl)n[nH]c2=O)c1
3. CC(c1ccccc1)c1cc(Oc2c(Cl)cc(-n3nc(N)c(=O)[nH]c3=O)cc2Cl)n[nH]c1=O (single isomer, unassigned)
4. Cc1cc(-n2nc(C#N)c(=O)[nH]c2=O)cc(C)c1Cc1ccc2[nH]c(=O)cc(C(C)C)c2c1
5. Nc1nn(-c2cc(Cl)c(Oc3ccc4c(c3)C3(CCCC3)C(=O)N4)c(Cl)c2)c(=O)[nH]c1=O
6. CC(C)NC(=O)c1c[nH]c2ccc(Oc3c(Cl)cc(-n4nc(C#N)c(=O)[nH]c4=O)cc3Cl)cc12

> 75%
50 to 75%
50 to 75%
< 50%
> 75%
< 50%
